# measurement_notes: Brain distribution study
# Format: in vivo, male C57BL/6 mice
# reported_conditions: male, C57BL/6, mouse, brain/plasma, po, 20 mg/kg, PO 20 mg/kg, male C57BL/6 mice, 0.167 hr; read-out: Brain Concentration/Plasma Concentration, Individuals
assay_readout: Kp at 0.167 hr
No unit in the answer, only the number.

NC(=O)c1ncn2c(=O)n(CCF)nnc12: 0.13

Here is the next item to consider.
# input compound: CNC(=O)c1ncn2c(=O)n(CCF)nnc12 ; wanted: its Kp at 0.167 hr
0.48

* * *

# measurement_notes: Brain distribution study
# Assay type: in vivo, male C57BL/6 mice
# reported_conditions: male, C57BL/6, mouse, brain/plasma, po, 20 mg/kg, PO 20 mg/kg, male C57BL/6 mice, 0.083 hr, N=3; read-out: Brain Concentration/Plasma Concentration, Mean
assay_readout: Kp at 0.083 hr
Lab note: record just the number, no unit beside it.

CNC(=O)c1ncn2c(=O)n(CCF)nnc12: 0.305

Now let's try a different one.
Suppose we examine the compound NC(=O)c1ncn2c(=O)n(CCF)nnc12 ; what Kp at 0.083 hr value has been reported?
0.0718
